Consider the following molecules; for each one, report its Ratio.
SYSTEM TESTED: Adrenergic receptors; alpha-1 A & B (Homo sapiens) (UniProt P35348+P35368)
ASSAY EXPLANATION: Ratio of binding affinity towards Alpha1b to Alpha-1A
Assay type: protein assay
Number, no unit, nothing else.

*Q* Which Ratio value is on record for CC(C)Oc1ccccc1N1CCN(CC(O)CNC(=O)c2ccc3c(c2)C(=O)N(c2ccc(Cl)cc2)C3=O)CC1 (stereo not drawn) ?
*A* 640

*Q* Bench note: what Ratio did COc1ccc(N2C(=O)c3ccc(C(=O)NCCCN4CCN(c5ccccc5OC(C)C)CC4)cc3C2=O)cc1 show?
*A* 3280

*Q* Can you look up the measured Ratio of CC(C)Oc1ccccc1N1CCN(CC(O)CNC(=O)c2ccc3c(c2)C(=O)N(c2ccc(Cl)c(Cl)c2)C3=O)CC1 (stereo not drawn) for me?
*A* 1030

*Q* What value of Ratio has been recorded for this entry: CC(C)Oc1ccccc1N1CCN(CC(O)CNC(=O)c2ccc3c(c2)C(=O)N(c2cccc(Cl)c2)C3=O)CC1 (stereo not drawn)
*A* 800

###

SYSTEM TESTED: D(2) dopamine receptor (Homo sapiens, UniProt P14416)
Sequence (P14416 whole entry): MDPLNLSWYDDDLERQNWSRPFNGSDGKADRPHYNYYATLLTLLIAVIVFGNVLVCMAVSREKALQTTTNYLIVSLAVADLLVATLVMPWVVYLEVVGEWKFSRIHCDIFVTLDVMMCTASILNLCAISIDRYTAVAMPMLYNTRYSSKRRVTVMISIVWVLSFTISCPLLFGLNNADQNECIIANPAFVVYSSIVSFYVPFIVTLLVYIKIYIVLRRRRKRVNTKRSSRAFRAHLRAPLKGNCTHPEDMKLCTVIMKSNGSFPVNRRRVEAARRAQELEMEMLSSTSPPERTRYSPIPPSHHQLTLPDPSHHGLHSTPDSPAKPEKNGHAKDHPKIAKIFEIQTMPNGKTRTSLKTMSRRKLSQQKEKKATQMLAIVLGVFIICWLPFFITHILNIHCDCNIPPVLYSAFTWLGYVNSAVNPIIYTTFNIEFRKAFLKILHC
ASSAY EXPLANATION: Compound at 1 uM was tested for the inhibition of radioligand [3H]spiperone binding to recombinant human Dopamine receptor D2S
ATTRIBUTE MEASURED: inhibition (%)
# number only, unit % dropped from output

*Q* Which measured inhibition value corresponds to Cc1ccc(N2C(=O)c3ccc(C(=O)NCCCN4CCN(c5ccccc5OC(C)C)CC4)cc3C2=O)cc1 ?
*A* 94

*Q* Entry under review: CC(C)Oc1ccccc1N1CCN(C[C@@H](O)CNC(=O)c2ccc3c(c2)C(=O)N(c2ccc(N(C)C)cc2)C3=O)CC1 . Reported inhibition?
*A* 71

*Q* Please give the measured inhibition for this compound: CCOc1ccccc1OCCN[C@H](C)Cc1ccc(OC)c(S(N)(=O)=O)c1
*A* 73

*Q* What value of inhibition has been recorded for this entry: CC(C)Oc1ccccc1N1CCN(CCCNC(=O)c2ccc3c(c2)C(=O)N(c2cccc(F)c2)C3=O)CC1
*A* 90

###

SYSTEM TESTED: Dihydropyridine-sensitive L-type Ca2+ channel (Rattus norvegicus, UniProt P22002+P27732+Q02485)
ASSAY EXPLANATION: Inhibition of [3H]nitrendipine binding to Dihydropyridine-sensitive L-type [Ca2+] channel in rat cerebral cortex at 1 uM
Format: tissue-based
CONDITION DESCRIPTION: probe [3H]nitrendipine
ATTRIBUTE MEASURED: inhibition at 1 µM (%)
Give just the number in %; leave the unit off.

*Q* Return reported inhibition at 1 µM; argument: CC(C)Oc1ccccc1N1CCN(CCCNC(=O)c2ccc3c(c2)C(=O)N(c2cccc(F)c2)C3=O)CC1
*A* 76

*Q* Look up inhibition at 1 µM for this compound: CCOc1ccccc1OCCN[C@H](C)Cc1ccc(OC)c(S(N)(=O)=O)c1 [TAMSULOSIN]
*A* 22

*Q* Given the compound Cc1ccc(N2C(=O)c3ccc(C(=O)NCCCN4CCN(c5ccccc5OC(C)C)CC4)cc3C2=O)cc1 , what is its reported inhibition at 1 µM?
*A* 53

*Q* Requested read-out: inhibition at 1 µM. Entry: CC(C)Oc1ccccc1N1CCN(C[C@@H](O)CNC(=O)c2ccc3c(c2)C(=O)N(c2cccc(F)c2)C3=O)CC1
*A* 67

###

SYSTEM TESTED: phenylalkylamine-sensitive L-type Ca2+ channel (Rattus norvegicus, UniProt P22002+P27732+Q02485)
ASSAY EXPLANATION: Inhibition of [3H]nitrendipine binding to phenylalkylamine-sensitive [Ca2+] L-type channels in rat cerebral cortex at 1 uM
Format: tissue-based
CONDITION DESCRIPTION: probe [3H]nitrendipine
ATTRIBUTE MEASURED: inhibition at 1 µM (%)
Give just the number in %; leave the unit off.

*Q* Which measured inhibition at 1 µM value corresponds to CCOc1ccccc1OCCN[C@H](C)Cc1ccc(OC)c(S(N)(=O)=O)c1 [TAMSULOSIN] ?
*A* 20

*Q* Entry CC(C)Oc1ccccc1N1CCN(CCCNC(=O)c2ccc3c(c2)C(=O)N(c2cccc(F)c2)C3=O)CC1 has what inhibition at 1 µM?
*A* 72

*Q* Which inhibition at 1 µM is reported for this molecule? CC(C)Oc1ccccc1N1CCN(C[C@@H](O)CNC(=O)c2ccc3c(c2)C(=O)N(c2ccc(N(C)C)cc2)C3=O)CC1
*A* 57

*Q* // returns reported inhibition at 1 µM for input CC(C)Oc1ccccc1N1CCN(C[C@@H](O)CNC(=O)c2ccc3c(c2)C(=O)N(c2cccc(F)c2)C3=O)CC1
*A* 81

*Q* Suppose we examine the molecule Cc1ccc(N2C(=O)c3ccc(C(=O)NCCCN4CCN(c5ccccc5OC(C)C)CC4)cc3C2=O)cc1 ; what inhibition at 1 µM value has been reported?
*A* 69

###

SYSTEM TESTED: Dihydropyridine-sensitive L-type Ca2+ channel (Rattus norvegicus, UniProt P22002+P27732+Q02485)
ASSAY EXPLANATION: Inhibition of [3H]nitrendipine binding to Dihydropyridine-sensitive L-type [Ca2+] channel in rat cerebral cortex at 10 uM
Format: tissue-based
CONDITION DESCRIPTION: probe [3H]nitrendipine
ATTRIBUTE MEASURED: inhibition at 10 µM (%)
Expressed in %, but write only the number.

*Q* Bench note: what inhibition at 10 µM did CC(C)Oc1ccccc1N1CCN(C[C@@H](O)CNC(=O)c2ccc3c(c2)C(=O)N(c2ccc(N(C)C)cc2)C3=O)CC1 show?
*A* 53

###

SYSTEM TESTED: Alpha-1A adrenergic receptor (Homo sapiens)
Sequence (P35348 whole entry): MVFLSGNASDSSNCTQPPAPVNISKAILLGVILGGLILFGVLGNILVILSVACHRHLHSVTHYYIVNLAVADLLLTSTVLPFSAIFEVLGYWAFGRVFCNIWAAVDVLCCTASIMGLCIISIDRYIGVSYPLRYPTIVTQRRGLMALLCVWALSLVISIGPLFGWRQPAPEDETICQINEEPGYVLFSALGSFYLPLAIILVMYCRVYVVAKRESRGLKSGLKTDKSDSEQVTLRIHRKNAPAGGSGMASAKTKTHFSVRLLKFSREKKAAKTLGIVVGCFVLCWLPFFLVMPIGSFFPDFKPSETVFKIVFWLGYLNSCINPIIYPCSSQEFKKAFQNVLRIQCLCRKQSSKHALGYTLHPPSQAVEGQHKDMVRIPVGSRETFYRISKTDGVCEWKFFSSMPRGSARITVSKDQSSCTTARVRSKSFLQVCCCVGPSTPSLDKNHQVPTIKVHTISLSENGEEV
ASSAY EXPLANATION: Binding affinity towards cloned human alpha-1A adrenergic receptor was determined using [125]-HEAT as radioligand
Provide the recorded Ki for the entries that follow.
Supply the numeric figure in nM, leaving out any unit text.

*Q* Query: Ki; subject: CCOc1ccccc1N1CCN(CC(O)CNC(=O)c2ccc3c(c2)C(=O)N(c2cccc(F)c2)C3=O)CC1 (stereo not given)
*A* 4.25

*Q* Which Ki value is on record for CC(C)Oc1ccccc1N1CCN(CC(O)CNC(=O)c2ccc3c(c2)C(=O)N(c2cccc(Cl)c2)C3=O)CC1 (stereo not given) ?
*A* 0.76

*Q* I am curious: what Ki value has been reported for Cc1ccc(N2C(=O)c3ccc(C(=O)NCCCN4CCN(c5ccccc5OC(C)C)CC4)cc3C2=O)cc1 ?
*A* 0.16

*Q* Entry under review: CC(C)Oc1ccccc1N1CCN(CC(O)CNC(=O)c2ccc3c(c2)C(=O)N(c2ccc(Cl)cc2)C3=O)CC1 (stereo not given) . Reported Ki?
*A* 0.95

*Q* What does the record list as Ki for CC(C)Oc1ccccc1N1CCN(C[C@@H](O)CNC(=O)c2ccc3c(c2)C(=O)N(c2cccc(F)c2)C3=O)CC1 ?
*A* 1.02

*Q* What value of measured Ki is listed for CC(C)Oc1ccccc1N1CCN(CC(O)CNC(=O)c2ccc3c(c2)C(=O)N(c2ccccc2)C3=O)CC1 (stereo not given) ?
*A* 0.9

*Q* Given the compound CC(C)Oc1ccccc1N1CCN(CC(O)CNC(=O)c2ccc3c(c2)C(=O)N(c2ccc(C(C)(C)C)cc2)C3=O)CC1 (stereo not given) , what is its reported Ki?
*A* 3.05

*Q* Consider the compound shown here: COC(CNC(=O)c1ccc2c(c1)C(=O)N(c1cccc(F)c1)C2=O)CN1CCN(c2ccccc2OC(C)C)CC1 (stereo not given) What is its recorded Ki?
*A* 6.9

*Q* Could you tell me which Ki is on file for CC(C)Oc1ccccc1N1CCN(C[C@@H](O)CNC(=O)c2ccc3c(c2)C(=O)N(c2ccc(O)cc2)C3=O)CC1 ?
*A* 0.46

*Q* Consider the compound COc1cc(N2C(=O)c3ccc(C(=O)NCC(O)CN4CCN(c5ccccc5OC(C)C)CC4)cc3C2=O)cc(OC)c1OC (stereo not given) and give its measured Ki.
*A* 1.22

*Q* Any idea what Ki was measured for CC(C)Oc1ccccc1N1CCN(C[C@@H](O)CNC(=O)c2ccc3c(c2)C(=O)N(c2ccc(N(C)C)cc2)C3=O)CC1 ?
*A* 0.33

*Q* Give the measured Ki of COc1ccccc1N1C(=O)c2ccc(C(=O)NCC(O)CN3CCN(c4ccccc4OC(C)C)CC3)cc2C1=O (stereo not given) .
*A* 1.47

*Q* For the compound CC(C)Oc1ccccc1N1CCN(CC(O)CNC(=O)c2ccc3c(c2)C(=O)N(c2ccc(N(C)C)cc2)C3=O)CC1 (stereo not given) , what Ki is on record?
*A* 0.8

*Q* Fill in the blank: the reported Ki of Cc1cccc(N2C(=O)c3ccc(C(=O)NCC(O)CN4CCN(c5ccccc5OC(C)C)CC4)cc3C2=O)c1 (stereo not given) is ____.
*A* 0.9

*Q* # query: Ki of entry CC(C)Oc1ccccc1N1CCN(CC(O)CNC(=O)c2ccc3c(c2)C(=O)N(c2ccc([N+](=O)[O-])cc2)C3=O)CC1 (stereo not given)
*A* 1.8
